System: K562
Experiment: NCI tumour cell line growth inhibition, 48 h
Active and inactive are the calls of the source. Rule as the data show it: active = GI50 up to about 1.1 µM and inactive = higher.
// one of 1 = active, -1 = inactive, no free text

Worked cases, answers included:
molecule	category
NCC(=O)C(O)C(O)C(O)CO (configuration not stated)	-1
CC(=O)NC(CCCCNC(=O)OC(C)(C)C)C(=O)O (configuration not stated)	-1
C=C(CC(NC(=O)c1ccc(C(CC)Cc2cnc3nc(N)nc(N)c3n2)cc1)C(=O)O)C(=O)O (configuration not stated)	1
COc1ccc(NC(=S)NNC(=O)c2nsc3ccccc23)cc1	-1
COC(=O)C1(C)CCc2c(OC)ccc(OC)c2C1=O (configuration not stated)	-1

## Input How did this test come out for COC(=O)[C@H]1[C@H](OC(=O)[C@@H](OC)c2ccccc2)ON2CC[C@@H](OC(=O)c3ccccc3)[C@H]12 ?
## Output -1

## Input How did this test come out for CC1=NN(c2ccccc2)C(=O)/C1=C\c1c(C)[nH]n(-c2ccccc2)c1=O ?
## Output -1

## Input How did this test come out for COC(=O)Cc1cc(=O)[nH]c2c1C(=O)CCC2 ?
## Output -1

## Input How did this test come out for Clc1ccc(CCNC2(c3cc4ccccc4s3)CCCCC2)cc1Cl ?
## Output -1

## Input How did this test come out for Nc1nc(Cl)c(Cl)c(NCC2(O)CCC2)n1 ?
## Output -1

---

// GI50 collected for HCT-15
One number for each entry, in µM.

Guide cases for GI50, answers given:
molecule	GI50, µM
CC(C)(C)[Si](C)(C)OCC1OC(n2ccc(=O)[nH]c2=O)C(O[Si](C)(C)C(C)(C)C)[C@]12O[C@@H]2CO (stereo not given in full)	11.9
O=c1cc(N2CCN(c3cc(=O)n4ccccc4n3)CC2)oc2ccccc12	30.6

Now consider a different molecule.
## Input Requested read-out: GI50. Entry: S=c1sc2c(n1-c1ccccc1)N=CNC2S (stereo not given)
## Output 97.3

---

Test system: IGROV-1
Test: NCI tumour cell line growth inhibition, 48 h
The source made the active and inactive calls. Cut-off read from the data, not from the text of the source: active = GI50 up to about 1.1 µM and inactive = higher.
What GI50 was measured for each of the following?

List GI50 for every entry below, keeping the order given.
1. CCO[C@H]1C[C@@H](c2ccccc2)[C@]2(C)C[C@H](C(=O)OC)ON2O1
2. COc1ccc2nc(-c3ccccc3)c(=O)[nH]c2c1
3. C=CCn1c(=O)c(C(=O)NC(=O)OCC)cn(C2CCCCC2)c1=O
4. Cc1nc2ccccc2n1CCc1nc2ccccc2s1
5. COc1ccc(Cc2c(=O)[nH]nc3ccccc23)cc1
6. CC(=O)c1sc(-c2nc(C)c(C(=O)/C=C\c3ccc(/C=C\C(=O)c4sc(-c5nc(C)c(C(C)=O)s5)nc4C)cc3)s2)nc1C

## Output
1: > 100 µM (inactive); 2: > 100 µM (inactive); 3: > 100 µM (inactive); 4: > 100 µM (inactive); 5: > 100 µM (inactive); 6: > 100 µM (inactive)

List GI50 for every entry below, keeping the order given.
1. CC(=O)Nc1ccc2oc(=O)c3ccccc3c2c1
2. CN(C)CCOC1(Cc2ccc(Cl)cc2Cl)CCC(C(C)(C)C)CC1 (stereo unspecified)

## Output
1. > 100 µM (inactive)
2. 1.83 µM (inactive)

List GI50 for every entry below, keeping the order given.
1. CCOC(=O)C12C(C(=O)OC)=C(C)N(NC(=O)Nc3ccccc3)C1(N)N(NC(=O)Nc1ccccc1)C(C)=C2C(=O)OC (stereo unspecified)
2. O=C(O)CNC(=O)c1ccc(-c2ccccc2)cc1
3. CC1CC(C)CC(NC2=NCCO2)C1 (stereo unspecified)
4. COC(=O)C(Cc1c[nH]c2ccccc12)NC1=Nc2ccncc2S(=O)(=O)N1c1cccc(OC(C)C)c1 (stereo unspecified)
5. CCCCn1c2ccccc2c2ccc3c(c21)C(=O)C=CC3=O
6. Cc1ccc(C[P+]2(c3ccccc3)CCCCC2)cc1.[O-][Cl+3]([O-])([O-])[O-]
7. O=C(NC(CS)C(=O)O)c1cccc2c(=O)c3ccccc3[nH]c12 (stereo unspecified)
8. COc1cc2c(cc1OC)C1C(=O)c3c(O)cc4c(c3OC1CO2)C=CC(C)(C)O4 (stereo unspecified)

## Output
["41.2 µM (inactive)", "> 100 µM (inactive)", "> 100 µM (inactive)", "18.7 µM (inactive)", "> 100 µM (inactive)", "21.3 µM (inactive)", "> 100 µM (inactive)", "19 µM (inactive)"]

List GI50 for every entry below, keeping the order given.
1. COC(=O)[C@@H](O)[C@]1(C(=O)OC)C2O[C@@H](OC)[C@@H]1CCCCCC[C@H]2O
2. CC(=O)NC(CCCN(Cc1ccccc1)C(=O)N(C)N=O)C(=O)NCc1ccccc1 (stereo unspecified)
3. CS(=O)(=O)Nc1ccc(N2Cc3c[nH]c4ccc5nccc2c5c34)cc1

## Output
1: > 100 µM (inactive); 2: > 100 µM (inactive); 3: 22.2 µM (inactive)

List GI50 for every entry below, keeping the order given.
1. NC1CC(=O)c2ccccc21 (stereo unspecified)
2. Cc1cc(Cl)ccc1C(=O)c1ccc2ccccc2c1C(=O)O

## Output
["> 100 µM (inactive)", "> 100 µM (inactive)"]

---

Test system: NCI/ADR-RES
Test: NCI tumour cell line growth inhibition, 48 h
Calls of active or inactive are those of the source. Cut-off read from the data, not from the text of the source: active = GI50 up to about 1.1 µM and inactive = higher.
// one of active, inactive, no free text

compound	system.name	category
c1ccc2/c3[nH]/c(c2c1)=N\c1ccc(cc1)-c1nc2ccc(cc2o1)/N=c1/[nH]/c(c2ccccc12)=N/c1ccc2nc(oc2c1)-c1ccc(cc1)\N=3	NCI/ADR-RES	inactive

## Input How did this test come out for Oc1nc2c(c(-c3ccccc3Cl)n1)COC/C2=C\c1ccccc1Cl ?
## Output inactive

## Input How did this test come out for CC[C@]12C=CCN3CC[C@@]4(c5ccc(OC)cc5N(C)[C@H]4[C@@](O)(C(=O)OC)[C@@H]1OC(C)=O)[C@@H]32 ?
## Output inactive

## Input How did this test come out for Cc1ccc([N+](=O)[O-])cc1S(=O)(=O)Nc1ccc(C2=NN(C(=O)c3ccccc3)C(c3ccccc3)C2)cc1 (centres undefined) ?
## Output inactive

## Input How did this test come out for COC1(OC)CCN(Cc2ccccc2)C1=O ?
## Output inactive

## Input How did this test come out for Nc1nc(Cl)c(Cl)c(NCC2(O)CCC2)n1 ?
## Output inactive

---

Tested on: OVCAR-8
Assay: NCI tumour cell line growth inhibition, 48 h
Activity calls are given as the source filed them. Cut-off read from the data, not from the text of the source: active = GI50 up to about 1.1 µM and inactive = higher. *1 amine or outer side, *2 acyl side, *3 side chain or, on linkers, in order; H or OH if unused. Where a SMILES comes first, the peptide text is derived from it. Bridges are numbered along the chain shown (N, C = ends). [ ]: non-standard residue; d: D form. X36 = CC[C@H](C)[C@@H](N[*:1])[C@@H](O)CC(=O)O[C@H](C(=O)[C@H](C)C(=O)[*:2])C(C)C; NMeY = CN[C@@H](Cc1ccc(O)cc1)C(=O)O
measurement.kind: GI50

compound	measurement.kind	value
CN1N=C(c2ccncc2)OC1c1ccc(Cl)c(Cl)c1 (configuration not stated)	GI50	> 100 µM (inactive)
Cc1ccc(C=C(C(=O)O)C(=O)O)o1	GI50	> 100 µM (inactive)
CC(=O)C1COC(O)C1C (configuration not stated)	GI50	19.5 µM (inactive)
CC[C@H](C)[C@H]1NC(=O)[C@@H](N)[C@@H](C)OC(=O)[C@H](Cc2ccc(OC)cc2)N(C)C(=O)[C@@H]2CCCN2C(=O)[C@H](CC(C)C)NC(=O)[C@@H](C)C(=O)[C@H](C(C)C)OC(=O)C[C@@H]1O (H-T[X36]LP[NMeY](Me); ester 1-C)	GI50	50.7 µM (inactive)
C=C(CC(NC(=O)c1ccc(C(CC)Cc2cnc3nc(N)nc(N)c3n2)cc1)C(=O)O)C(=O)O (configuration not stated)	GI50	0.0217 µM (active)
O=C(/N=C1\SCCN1C(=O)C(C(F)(F)F)C(F)(F)F)C(C(F)(F)F)C(F)(F)F	GI50	> 100 µM (inactive)

List GI50 for every entry below, keeping the order given.
1. COC1/C(=C\C(C)=O)c2ccccc2N1C(C)=O (configuration not stated)
2. COc1ccc2c(c1)[n+]([O-])c(C(N)=O)c(N)[n+]2[O-]

## Output
1: > 100 µM (inactive); 2: 95.3 µM (inactive)

List GI50 for every entry below, keeping the order given.
1. CN(C)/C=N/n1c2ccccc2c2ccccc21
2. CN1C(=O)C2(c3ccccc31)C1CC3C(CO1)C1C2C3(CO)CN1C#N (configuration not stated)
3. c1ccc2c(CNCCCN3CCN(CCCNCc4cccc5ccccc45)CC3)cccc2c1
4. O=C(NCCCCCCNC(=O)n1cc(F)c(=O)[nH]c1=O)NCCCOCCOCCOCCOCCOCCOCCOCCOCCOCCOCCOCCOCCOCCOCCOCCOCCOCCOCCOCCOCCOCCCNC(=O)C(O)C(O)C(O)C(O)CO (configuration not stated)

## Output
["> 100 µM (inactive)", "> 100 µM (inactive)", "1.77 µM (inactive)", "39.2 µM (inactive)"]

List GI50 for every entry below, keeping the order given.
1. Nc1ccc(C(=O)N/C(=C\C=C\c2ccco2)c2nc3c(O)nc(S)nc3[nH]2)cc1
2. O=[N+]([O-])c1ccc(/C=C/c2ccc(/C=C/c3ccc([N+](=O)[O-])cc3[N+](=O)[O-])cc2)c([N+](=O)[O-])c1
3. COc1ccc(/C(Cl)=C(\C=O)c2ccc([N+](=O)[O-])cc2)cc1OC
4. Nc1cccc2cc(Cl)cnc12

## Output
> 100 µM (inactive)
> 100 µM (inactive)
7.64 µM (inactive)
> 100 µM (inactive)
